Tested on: UACC-257
ASSAY OVERVIEW: NCI tumour cell line growth inhibition, 48 h
Activity calls are given as the source filed them. Cut-off read from the data, not from the text of the source: active = GI50 up to about 1.1 µM and inactive = higher.
Recorded GI50, one value per entry.

>  <COMPOUND>
COC(=O)C(CCc1ccccc1I)C1=CCC2(CC1)OCCO2 (centres undefined)

>  <EXPERIMENTAL TARGET>
UACC-257

>  <GI50>
29.4 µM (inactive)

$$$$
>  <COMPOUND>
CC(=O)Oc1ccc(/C=C/C(=O)O[C@@H](C)[C@H](C)OC(=O)/C=C/c2ccc(OC(C)=O)c(OC(C)=O)c2)cc1OC(C)=O

>  <EXPERIMENTAL TARGET>
UACC-257

>  <GI50>
18.7 µM (inactive)

$$$$
>  <COMPOUND>
O=C(O)C(CS)NCc1c2ccccc2[n+]([O-])c2ccccc12 (centres undefined)

>  <EXPERIMENTAL TARGET>
UACC-257

>  <GI50>
> 100 µM (inactive)

$$$$
>  <COMPOUND>
CC1(C)OCC(C(O)C2OC(C)(C)OC2/C=N\O)O1 (centres undefined)

>  <EXPERIMENTAL TARGET>
UACC-257

>  <GI50>
> 100 µM (inactive)

$$$$
